kon listing for selected binders.
# Target of assay: T1, recombinant human IL-27 (human, UniProt Q14213 21-229; Q8NEV9 29-243)
# T1 construct: Bought from R&D Systems (Cat. 2526-IL); also called hIL-27; rhIL-27
# T1 sequence 1: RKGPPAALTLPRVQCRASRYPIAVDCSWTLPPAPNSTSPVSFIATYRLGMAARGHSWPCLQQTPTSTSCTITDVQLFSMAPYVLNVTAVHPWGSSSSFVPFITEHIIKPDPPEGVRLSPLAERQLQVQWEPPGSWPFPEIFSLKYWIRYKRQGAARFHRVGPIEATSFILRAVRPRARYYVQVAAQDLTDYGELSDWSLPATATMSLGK
# T1 sequence 2: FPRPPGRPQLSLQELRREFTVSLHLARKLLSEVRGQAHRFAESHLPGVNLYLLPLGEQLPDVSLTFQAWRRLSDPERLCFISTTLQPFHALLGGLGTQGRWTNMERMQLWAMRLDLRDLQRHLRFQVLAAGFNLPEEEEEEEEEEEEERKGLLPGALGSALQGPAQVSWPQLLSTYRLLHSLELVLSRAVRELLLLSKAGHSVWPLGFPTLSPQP
# Method notes: SPR (Biacore T200), hIL-27 on CM5 chip, single cycle, 1:1 model
Please state the figure in M⁻¹ s⁻¹; there is no need to write the unit.

Sample answers from the record:
Incoming: Using the record for Ab7.17 (antibody, human IgG1, kappa, V domains shown, human IgG1/kappa) VH: EVQLVESGGGLVQPGGSLRLSCAASGFTFTSYSMSWVRQAPGKGLEWVAYISYDGGSAYYPDTVKGRFTISRDNSKNTLYLQMNSLRAEDTAVYYCARHGDYDDDDAMDYWGQGTLVTVSS VL: DIQMTQSPSSLSASVGDRVTITCRASENIYSYLAWYQQKPGKAPKLLVYNAETLTEGVPSRFSGSGSGTDFTLTISSLQPEDFANYYCQHHYGTPLTFGQGTKLEIKR , state its measured kon.
Outgoing: 1.3e+06

Incoming: Using the record for Ab7.12 (antibody, human IgG1, kappa, V domains shown, human IgG1/kappa) VH: EVKLVESGGGLVQPGGSLRLSCAASGFTFTSYSMSWVRQAPGKGLEWVAYISYDGGSAYYPDTVKGRFTISRDNSKKTLYLQMNSLRAEDTAVYYCARHGDYDDDDAMDYWGQGTLVTVSS VL: DIQMTQSPSSLSASVGDRVTITCRASENIYSYLAWYQQKQGKAPKLLVYNAETLTEGVPSRFSGSGSGTDFTLTISSLQPEDFANYYCQHHYGTPLTFGQGTKLDIKR , state its measured kon.
Outgoing: 1.5e+06

Incoming: Using the record for Ab7.9 (antibody, human IgG1, kappa, V domains shown, human IgG1/kappa) VH: EVQLVESGGGLVQPGGSLRLSCAASGFTFTSYSMSWVRQAPGKGLEWVAYISYDGGSAYYPDTVKGRFTISRDNSKNTLYLQMSSLKSEDTAMYYCARHGDYDDDDAMDYWGQGTLVTVSS VL: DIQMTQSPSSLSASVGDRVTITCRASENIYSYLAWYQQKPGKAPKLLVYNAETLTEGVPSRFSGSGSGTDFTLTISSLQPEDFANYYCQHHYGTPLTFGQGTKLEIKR , state its measured kon.
Outgoing: 1.3e+06

Incoming: Using the record for Ab7.21 (antibody, human IgG1, kappa, V domains shown, human IgG1/kappa) VH: EVQLVESGGGLVQPGGSLRLSCAASGFTFTSYSMSWVRQAPGKGLEWVSYISYDGGSAYYPDTVKGRFTISRDNSKNTLYLQMNSLRAEDTAVYYCARHGDYDDDDAMDYWGQGTLVTVSS VL: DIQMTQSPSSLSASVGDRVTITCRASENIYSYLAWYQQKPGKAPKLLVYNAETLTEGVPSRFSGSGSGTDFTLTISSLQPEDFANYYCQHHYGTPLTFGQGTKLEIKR , state its measured kon.
Outgoing: 1.2e+06

Then there is this binder:
Incoming: Using the record for Ab7.13 (antibody, human IgG1, kappa, V domains shown, human IgG1/kappa) VH: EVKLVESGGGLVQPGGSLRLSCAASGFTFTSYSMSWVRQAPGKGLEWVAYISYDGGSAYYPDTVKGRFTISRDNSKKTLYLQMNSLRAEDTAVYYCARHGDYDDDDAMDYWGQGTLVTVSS VL: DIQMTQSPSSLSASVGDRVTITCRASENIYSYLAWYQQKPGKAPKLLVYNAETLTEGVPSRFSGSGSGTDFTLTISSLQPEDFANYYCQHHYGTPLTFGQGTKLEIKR , state its measured kon.
Outgoing: 1.5e+06

Provenance of the data: patent US20190382474A1
